Listed compounds paired with reported SI (CC50/EC50)
Tested on: HIV-1 IIIB
Conditions: selectivity index
Protocol: Assessment of anti-HIV-1 infectivity. The inhibitory activity of compounds on infection by laboratory-adapted HIV-1 strains was determined as previously described (34). […] For the time-of-addition assay, compounds were added at various time post-infection. […] On the fourth day post-infection, 100 μl of culture supernatants were collected from each well, mixed with equal volumes of 5% Triton X-100 and assayed for p24 antigen, which was quantitated by ELISA (23). […]
Simply state the number, no unit and no words.

1. O=C(O)c1cccc(-c2ccc(/C=C3\SC(=S)N(c4cccc(F)c4)C3=O)o2)c1 [NB147]	8.85
2. O=C(O)c1cc(-c2ccc(/C=C3\SC(=O)N(c4ccc(Cl)cc4)C3=O)o2)ccc1Cl [NB140]	10.41
3. O=C(O)c1cccc(-c2ccc(/C=C3\SC(=S)N(c4cccc(Cl)c4)C3=O)o2)c1 [NB145]	261.5
4. O=C(O)c1cccc(-c2ccc(/C=C3\SC(=S)N(c4ccc(Cl)cc4Cl)C3=O)o2)c1 [NB231]	656.56
5. O=C(O)c1cccc(-c2ccc(/C=C3\SC(=S)N(c4cccc5ccccc45)C3=O)o2)c1 [NB221]	75.04

Switching to the query record.
Give the measured SI (CC50/EC50) of Cc1ccc(N2C(=O)/C(=C/c3ccc(-c4cccc(C(=O)O)c4)o3)SC2=S)cc1 [NB230] .
428.93

---

Listed compounds paired with reported EC50
tested on: RU570 (clade G, R5); details: read-out: EC50 (μM) (Mean ± SD)
Give just the numeric value; µM need not be written.

1. O=C(O)c1cc(-c2ccc(/C=C3\SC(=S)N(CCc4ccccc4)C3=O)o2)ccc1Cl	0.017
2. CCN1C(=O)/C(=C/c2ccc(-c3cccc(C(=O)O)c3)o2)SC1=S	0.431

Switching to the query record.
Give the measured EC50 of "O=C(O)c1cccc(-c2ccc(/C=C3\SC(=S)N(c4ccc(Cl)cc4Cl)C3=O)o2)c1" .
0.143

---

test system: MT-2 cells; details: read-out: Cytotoxicity CC50 (μM) (M ± SD); MT-2 cells
Rule for this label: true means CC50 is less than 90 µM; false means CC50 is at least 90 µM.

Solved cases (5 shown):
1. Cc1ccc(N2C(=O)/C(=C/c3ccc(-c4cccc(C(=O)O)c4)o3)SC2=S)c(C)c1	true
2. O=C(O)c1cc(-c2ccc(/C=C3\SC(=O)N(CC(=O)N4CCOCC4)C3=O)o2)ccc1Cl	false
3. O=C(O)c1cccc(-c2ccc(/C=C3\SC(=S)N(c4cccc(Cl)c4)C3=O)o2)c1	true
4. O=C(O)c1cc(-c2ccc(/C=C3\SC(=S)N(C4CCCCC4)C3=O)o2)ccc1Cl	true
5. O=C(O)c1cc(-c2ccc(/C=C3\SC(=S)N(c4ccc(Cl)cc4)C3=O)o2)ccc1Cl	false

Hello, I'm reviewing records and need to know if CC50 of "Cc1c(C(=O)O)cccc1-c1ccc(/C=C2\SC(=O)N(CC(=O)Nc3ccccc3F)C2=O)o1" is below 90 µM. Could you check?
false

Hello, I'm reviewing records and need to know if CC50 of "O=C(O)c1cc(-c2ccc(/C=C3\SC(=O)N(c4ccc(Cl)cc4)C3=O)o2)ccc1Cl" is below 90 µM. Could you check?
false

Hello, I'm reviewing records and need to know if CC50 of "O=C(O)c1cc(-c2ccc(/C=C3\SC(=S)N(CCc4ccccc4)C3=O)o2)ccc1Cl" is below 90 µM. Could you check?
true
